Conditions: human, in vivo, 648 mg
Where a name gives a salt, the structure may show the parent alone.

>  <Molecule>
C=C[C@H]1C[N@@]2CC[C@H]1C[C@H]2[C@H](O)c1ccnc2ccc(OC)cc12 [Quinine Sulfate]

>  <Tmax (h)>
2.8

$$$$
